Recorded Kd values for a group of compounds are listed next.
experiment: Binding affinity to 5'-FAM-pre-miR-372 (unknown origin) after 4 hrs by fluorescence assay; conditions: read-out: Kd
Reply with just the number (in nM).

Before answering, review these 2 worked examples.
C[C@H]1c2cccc(O)c2C(=O)C2=C(O)[C@]3(O)C(=O)C(C(N)=O)=C(O)[C@@H](N(C)C)[C@@H]3[C@@H](O)[C@@H]21 :: 908
CN(C)[C@@H]1C(O)=C(C(N)=O)C(=O)[C@@]2(O)C(O)=C3C(=O)c4c(O)cccc4[C@@](C)(O)[C@H]3[C@H](O)[C@@H]12 :: 6150

Now for another entry.
Noted for CN[C@@H]1[C@@H](O[C@H]2O[C@H](CO)[C@@H](N)[C@H](O)[C@H]2O)OC2C[C@@H](N)[C@@H](O[C@H]3[C@H](O)[C@@H](O)[C@H](N)C[C@@H]3N)OC2[C@@H]1O (stereo partly drawn) : its Kd reads 2990
